Each entry below carries its recorded pIC50.
- EXPERIMENTAL_SYSTEM: PRMT5 (Homo sapiens, UniProt O14744)
- Construct: purchased Viva (custom protein)
- Sequence (O14744 whole entry): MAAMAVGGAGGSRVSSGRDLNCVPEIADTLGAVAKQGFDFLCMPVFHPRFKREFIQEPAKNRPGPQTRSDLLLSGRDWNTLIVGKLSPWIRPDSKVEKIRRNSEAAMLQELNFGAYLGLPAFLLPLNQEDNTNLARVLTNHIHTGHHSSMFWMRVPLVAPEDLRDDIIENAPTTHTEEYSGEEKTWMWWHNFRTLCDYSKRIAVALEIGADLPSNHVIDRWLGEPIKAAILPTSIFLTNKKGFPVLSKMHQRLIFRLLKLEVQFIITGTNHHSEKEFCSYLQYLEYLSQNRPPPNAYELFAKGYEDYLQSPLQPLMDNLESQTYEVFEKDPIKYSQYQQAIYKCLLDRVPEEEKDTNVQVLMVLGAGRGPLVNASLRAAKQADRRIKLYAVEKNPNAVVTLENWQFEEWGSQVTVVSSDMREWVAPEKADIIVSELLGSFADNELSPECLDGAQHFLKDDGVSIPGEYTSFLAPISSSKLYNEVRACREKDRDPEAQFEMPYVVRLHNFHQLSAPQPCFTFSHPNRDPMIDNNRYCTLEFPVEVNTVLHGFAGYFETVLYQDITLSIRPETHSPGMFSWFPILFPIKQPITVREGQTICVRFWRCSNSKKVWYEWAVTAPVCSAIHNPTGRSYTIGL
- Sequence (Q9BQA1 whole entry partner): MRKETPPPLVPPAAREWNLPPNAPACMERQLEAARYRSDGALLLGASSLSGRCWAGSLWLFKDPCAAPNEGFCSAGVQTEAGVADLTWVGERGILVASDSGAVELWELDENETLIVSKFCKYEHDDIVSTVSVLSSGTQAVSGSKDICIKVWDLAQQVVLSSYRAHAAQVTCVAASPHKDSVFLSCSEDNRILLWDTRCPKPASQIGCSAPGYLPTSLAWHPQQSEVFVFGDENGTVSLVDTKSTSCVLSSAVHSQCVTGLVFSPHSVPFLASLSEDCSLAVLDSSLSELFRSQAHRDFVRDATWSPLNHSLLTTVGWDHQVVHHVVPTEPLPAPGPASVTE
- ASSAY_OVERVIEW: PRMT5 IC50 assay in the presence of MTA as cofactor
- Format: biochemical
- EXPERIMENTAL_SETUP: PRMT5, MTA as cofactor
- Source text: Table 1a indicates IC50 values (μM) against PRMT5 for exemplary compounds in the presence of SAM as cofactor, with no cofactor and with MTA as cofactor, respectively (columns 3-5). […] The Ki values can be calculated from the IC50 values as described in the Examples section. As detailed in the Examples section, for the assay performed in the presence of SAM, IC50=Ki×1.5 (Ki=IC50/1.5). For the assay performed in the presence of MTA, IC50=Ki×13.5 (Ki=IC50/13.5). […]
pIC50: −log10 of the molar value.

Look over these answered cases.
- COMPOUND: "Cc1ncoc1COc1ccc2c(c1)CCN(C[C@@H](O)CNC(=O)c1cc(NC3CC4(CCC4)C3)nc(N3CCN(C(=O)C4CC4)CC3)c1)C2 [Compound 610]"
  pIC50: "> 7.30"
- COMPOUND: "Cc1ncoc1COc1ccc2c(c1)CCN(C[C@@H](O)CNC(=O)c1cc(NC3CCN(C(=O)C(C)(C)C)CC3)ncn1)C2 [Compound 616]"
  pIC50: "> 7.30"
- COMPOUND: "O=C(NC[C@H](O)CN1CCc2c(ccc(OCc3cnco3)c2Cl)C1)c1cccc(NC2CCC2)c1 [Compound 335]"
  pIC50: "5.30 to 6.30"
- COMPOUND: "Cc1ncoc1COc1ccc2c(c1)CCN(C[C@@H](O)CNC(=O)c1ccc(OC3CCN(Cc4ccccc4)CC3)cc1)C2 [Compound 392]"
  pIC50: "6.30 to 7.30"
- COMPOUND: "CC(=O)N1CC(Nc2cc(C(=O)NC[C@H](O)CN3CCc4cc(OCc5ocnc5C)ccc4C3)nc(N3CCCCC3)n2)C1 [Compound 534]"
  pIC50: "> 7.30"

What value of pIC50 has been reported for the following compound? COCCN(C)c1nc(NC2COC2)cc(C(=O)NC[C@H](O)CN2CCc3c(ccc(OCc4cnco4)c3Cl)C2)n1 [Compound 314] 6.30 to 7.30

Which pIC50 value belongs to Cc1c(OCc2cnco2)ccc2c1CCN(C[C@@H](O)CNC(=O)c1ccnc(N[C@H]3C[C@H](O)C3)c1)C2 [Compound 552] ? 5.30 to 6.30

---

- EXPERIMENTAL_SYSTEM: PRMT5 (Homo sapiens)
- Construct: purchased Viva (custom protein)
- ASSAY_OVERVIEW: PRMT5 IC50 assay in the presence of SAM as cofactor
- Assay type: biochemical
Measured IC50, listed per entry.

Worked cases, IC50 given:
- COMPOUND: "Cc1c(OCc2cnco2)ccc2c1CCN(C[C@@H](O)CNC(=O)c1ccnc(NC3CCN(C(=O)CC(C)C)CC3)c1)C2 [Compound 447]"
  TEST_VALUE: "50 to 500 nM"
- COMPOUND: "O=C(NC[C@H](O)CN1CCc2cc(OCc3cnco3)ccc2C1)c1ccnc(Nc2cccnc2)c1 [Compound 399]"
  TEST_VALUE: "500 to 5000 nM"
- COMPOUND: "O=C(NC[C@H](O)CN1CCc2cc(OCc3c[nH]nn3)ccc2C1)c1ccnc(NC2CCC2)c1 [Compound 207]"
  TEST_VALUE: "500 to 5000 nM"
- COMPOUND: "CC(=O)N1CC(Nc2cc(C(=O)NC[C@H](O)CN3CCc4cc(OCc5cnco5)ccc4C3)nc(C(C)C)n2)C1 [Compound 349]"
  TEST_VALUE: "50 to 500 nM"
- COMPOUND: "CN1CCN(c2cc(C(=O)NC[C@H](O)CN3CCc4cc(OCc5cnco5)ccc4C3)cc(NC3CCC3)n2)CC1 [Compound 448]"
  TEST_VALUE: "50 to 500 nM"

# lookup: IC50 of CCC(=O)N1CCC(Nc2cc(C(=O)NC[C@H](O)CN3CCc4c(ccc(OCc5cnco5)c4C)C3)ccn2)CC1 [Compound 496] 50 to 500 nM
